Test system: MOLT-4
Experiment: Cytotoxicity, Cell Counting Kit (CCK-8)
Assay type: cell-based
Settings: Homo sapiens, CCK-8, mean ± SD, n = 3, unit from b62 and Table S1 title (there headed MIC)
READOUT: pIC50
// field semantics: pIC50 = negative decimal log of concentration (mol/L)

Some solved cases for reference:
- MOLECULE: "COc1cc(O)cc2c1C(=O)c1c(O)cc(C)cc1C2=O"
  SUBJECT_OF_TEST: "MOLT-4"
  READOUT_NUMBER: 4.87
- MOLECULE: "CC(=O)O[C@H]1C(=O)[C@@]2(C)[C@H]([C@H](OC(=O)c3ccccc3)[C@]3(O)C[C@H](OC(=O)[C@H](O)[C@@H](NC(=O)c4ccccc4)c4ccccc4)C(C)=C1C3(C)C)[C@]1(OC(C)=O)CO[C@@H]1C[C@@H]2O [Taxol, reference compound]"
  SUBJECT_OF_TEST: "MOLT-4"
  READOUT_NUMBER: 8.52

Now for the molecule whose pIC50 we want.
[Q] Consider the molecule shown here: CC12CCCC(O1)c1c(cc3c(c1O)C(=O)c1c(O)cc(O)cc1C3=O)O2 (stereo not drawn) What is its recorded pIC50?
[A] 5.24

###

Measured pIC50, listed per entry.
Test system: Huh-7
Test: Cytotoxicity, Cell Counting Kit (CCK-8)
Type: cell-based
Settings: Homo sapiens, CCK-8, mean ± SD, n = 3, unit from b62 and Table S1 title (there headed MIC)
Note on pIC50: it is the negative log10 of concentration, concentration in mol/L.

[Q] Could you share what pIC50 was measured for CC12CCCC(O1)c1c(cc3c(c1O)C(=O)c1c(O)cc(O)cc1C3=O)O2 (stereo not drawn) , tested on Huh-7?
[A] 5.50

[Q] Item: CC(=O)O[C@H]1C(=O)[C@@]2(C)[C@H]([C@H](OC(=O)c3ccccc3)[C@]3(O)C[C@H](OC(=O)[C@H](O)[C@@H](NC(=O)c4ccccc4)c4ccccc4)C(C)=C1C3(C)C)[C@]1(OC(C)=O)CO[C@@H]1C[C@@H]2O [Taxol, reference compound] Test system: Huh-7 Read-out: pIC50 Value: ?
[A] 8.52

[Q] Lab note: need pIC50 with Huh-7 for entry `COc1cc(O)cc2c1C(=O)c1c(O)cc(C)cc1C2=O` , please look it up.
[A] 4.60

###

System: HL60 cells
Assay: Cytotoxicity, Cell Counting Kit (CCK-8)
Assay type: cell-based, human
Conditions: Homo sapiens, HL-60, read-out: IC50 concentration, HL60 cell lines
READOUT: pIC50
When answering, recall that pIC50 equals minus log10 of the concentration in mol/L, and write that number alone.

[Q] // lookup pIC50 for CC12CCCC(O1)c1c(cc3c(c1O)C(=O)c1c(O)cc(O)cc1C3=O)O2 (stereo not shown)
[A] 6.00

###

Tested on: HL7702
Assay: Cytotoxicity, Cell Counting Kit (CCK-8)
Assay type: cell-based
Conditions: Homo sapiens, L02; CCK-8, mean ± SD, n = 3; unit from b62 and Table S1 title (there headed MIC)
READOUT: IC50
Reply with the number and its unit after it.

- COMPOUND: "COc1cc(O)cc2c1C(=O)c1c(O)cc(C)cc1C2=O [Compound 5, methyl emodin]"
  IC50: "67.2 µM"
- COMPOUND: "CC12CCCC(O1)c1c(cc3c(c1O)C(=O)c1c(O)cc(O)cc1C3=O)O2 (stereo not drawn) [Compound 1, averufin]"
  IC50: "3.57 µM"

Now for a further compound.
[Q] For the compound CC(=O)O[C@H]1C(=O)[C@@]2(C)[C@H]([C@H](OC(=O)c3ccccc3)[C@]3(O)C[C@H](OC(=O)[C@H](O)[C@@H](NC(=O)c4ccccc4)c4ccccc4)C(C)=C1C3(C)C)[C@]1(OC(C)=O)CO[C@@H]1C[C@@H]2O [Taxol, reference compound] , what IC50 is on record?
[A] 0.003 µM

Entry source: paper PMC10577379
